system: Human AML MV-4-11 cells; assay: Inhibition of cell proliferation in MV4-11 cells; format: cell-based; parameters: key: Active: Compounds with an IC50 value less than 30 μM are deemed to be active.; Not Active: Compounds with an IC50 value less than 30 μM are deemed to be active; conditions: 72 hours
Structures can show the parent of a compound that is named as a salt.
MEASUREMENT_LABEL: cell proliferation activity (IC50 < 30 μM)

MOLECULE	OBSERVED
COc1cc(OC)c2c(=O)[nH]c(-c3cccc(N4CCN(C(C)C(N)=O)CC4)n3)nc2c1 (centres unmarked)	Active
COCCN1CCN(c2cccc(-c3nc4cc(OC)cc(OC)c4c(=O)[nH]3)n2)CC1	Active
COc1cc(OC)c2c(=O)[nH]c(-c3cccc(N4CCOCC4)n3)nc2c1 [Example 16, Hydrochloride]	Not Active
COc1cc(OC)c2c(=O)[nH]c(-c3cccc(N4CCN(C(C)C)CC4)n3)nc2c1 [Example 17, Hydrochloride]	Active

Field request: cell proliferation activity (IC50 < 30 μM) | item: `COc1cc(OC)c2c(=O)[nH]c(-c3cccc(N4CCC(N(C)C)CC4)n3)nc2c1`
Active

I have this molecule here, `COc1cc(OC)c2c(=O)[nH]c(-c3cccc(N4CCN(C)C(=O)C4)n3)nc2c1` , and I need its recorded cell proliferation activity (IC50 < 30 μM).
Not Active

# input molecule: COc1cc(OC)c2c(=O)[nH]c(-c3cccc(N4CCN(C(=O)NC(C)C)CC4)n3)nc2c1 [Example 27, Hydrochloride] ; wanted: its cell proliferation activity (IC50 < 30 μM)
Active

So what does the record say about cell proliferation activity (IC50 < 30 μM) for COc1cc(OC)c2c(=O)[nH]c(-c3ccc(OCCO)c(N4CCN(C(C)C)CC4)n3)nc2c1 [Example 13, acetate] ?
Not Active

---

tested on: c-myc; experiment: Inhibition of c-myc expression (mRNA, real-time PCR) in MV4-11 cells; type: cell-based; set-up: key: Active: Compounds with an IC50 value less than 30 μM were deemed to be active.; Not Active: Compounds with an IC50 value less than 30 μM were deemed to be active; conditions: Human AML MV4-11 cells, 3 hours
Structures can show the parent of a compound that is named as a salt.
MEASUREMENT_LABEL: c-myc activity (IC50 < 30 μM)

MOLECULE	OBSERVED
COc1cc(OC)c2c(=O)[nH]c(-c3cccc(N4CCN(C(C)C)CC4)c3)nc2c1 [Example 1]	Active
COc1cc(OC)c2c(=O)[nH]c(-c3cccc(N4CCN(C)CC4)n3)nc2c1 [Example 15, Hydrochloride]	Active

---

Structures can show the parent of a compound that is named as a salt.
The compounds listed here are annotated with their melting point.

COMPOUND	MEASUREMENT_LABEL	OBSERVED
COc1cc(OC)c2c(=O)[nH]c(-c3cccc(N4CCN(C(C)C)CC4)c3)nc2c1	melting point	251 to 253 °C
COc1cc(OC)c2c(=O)[nH]c(-c3ccc(OCCNC(C)C)c(N4CCN(C(C)C)CC4)n3)nc2c1 (as salt: trifluoroacetate) [Example 12, bis(trifluoroacetate)]	melting point	186 to 188 °C
COCCN1CCN(c2cccc(-c3nc4cc(OC)cc(OC)c4c(=O)[nH]3)n2)CC1	melting point	99 to 101 °C
COC(=O)CN1CCN(c2cccc(-c3nc4cc(OC)cc(OC)c4c(=O)[nH]3)n2)CC1	melting point	176 to 177 °C
COc1cc(OC)c2c(=O)[nH]c(-c3cccc(N4CCN(CCO)CC4)n3)nc2c1	melting point	175 to 177 °C
COc1cc(OC)c2c(=O)[nH]c(-c3ccc(OC)c(N4CCN(C(C)C)CC4)n3)nc2c1	melting point	208 to 210 °C

Look up melting point for this compound: `COc1cc(-c2nc3cc(OC)cc(OC)c3c(=O)[nH]2)cc(N2CCN(C(C)C)CC2)c1`
212 to 213 °C

Data request, read-out melting point, for `COc1cc(OC)c2c(=O)[nH]c(-c3cccc(N4CCN(CC(=O)O)CC4)n3)nc2c1`
225 °C (dec.)

Give its melting point value. Item: `COc1cc(OC)c2c(=O)[nH]c(-c3cccc(N4CCN(CC(C)C)CC4)n3)nc2c1`
188 to 189 °C

Item COc1cc(OC)c2c(=O)[nH]c(-c3cccc(N4CCN(C(C)CO)CC4)n3)nc2c1 (stereo not shown) has what recorded melting point?
202 to 204 °C

Which melting point value is on record for COc1cc(OC)c2c(=O)[nH]c(-c3ccc(OCCO)c(N4CCN(C(C)C)CC4)n3)nc2c1 (as salt: acetate) ?
138 to 139 °C

Report melting point for COc1cc(OC)c2c(=O)[nH]c(-c3cccc(N4CCN(C(C)C(N)=O)CC4)n3)nc2c1 (stereo not shown) please.
149 to 150 °C

For the compound `COc1cc(OC)c2c(=O)[nH]c(-c3cccc(N4CCN(CCC(=O)O)CC4)n3)nc2c1` , what melting point is on record?
241 °C (dec.)
